Entry source: ChEMBL document CHEMBL4831479

test: Selectivity index, ratio of IC50 for African green monkey Vero cells to MIC for antitubercular activity against Mycobacterium tuberculosis H37Rv; format: toxicity; details: read-out: Selectivity Index
readout-name: selectivity ratio

Query Cc1ccnc(NC(=O)c2ccsc2NC(=O)c2ccc(C(=O)N3CCCCC3)cc2)n1 yields selectivity ratio of > 27

Query CCOC(=O)NC(=O)c1ccsc1NC(=O)c1nc2ccccc2s1 yields selectivity ratio of 66

Query CCOC(=O)NC(=O)c1ccsc1NC(=O)c1ccc(C(=O)N2CCCCC2)c(F)c1 yields selectivity ratio of > 4000

Query O=C(Nc1sccc1C(=O)Nc1nccc(C(F)(F)F)n1)c1ccc(C(=O)N2CCCCC2)cc1 yields selectivity ratio of > 320

Query CCCNC(=O)c1ccc(C(=O)Nc2sccc2C(=O)NC(=O)OCC)cc1 yields selectivity ratio of > 320

Query CCOC(=O)NC(=O)c1ccsc1NC(=O)c1ccc(C(=O)N2CCCCC2)s1 yields selectivity ratio of > 457
